Hey, just so you know, these numbers are from the NIST ThermoML archive (doi:10.1016/j.jct.2011.10.023).

# test context: 358.15 K; 10000 kPa; Liquid; Vibrating tube method
experimental endpoint: mass density (kg/m3)

1) CCCCCCCCCCO :: 791.6
2) CCCCO :: 767
3) CCCO :: 758.8
4) CCO :: 742.1
5) CCCCCCCO :: 783
6) CCCCCO :: 773.5
7) CCCCCCO :: 778.6
8) CCCCCCCCO :: 786.4
9) CCCCCCCCCCCO :: 793.9
10) CCCCCCCCCO :: 789

====

Listing of entries alongside the reported mass density.
# test context: 328.15 K; 35000 kPa; Liquid; Vibrating tube method
experimental endpoint: mass density (kg/m3)

1) CCO :: 790.4
2) CCCCCCCCO :: 823.5
3) CCCCCCCCCCO :: 827.1
4) CCCCCCCCCCCO :: 829
5) CCCCCO :: 813.8
6) CCCCCCCCCO :: 825.2
7) CCCCCCO :: 817.6
8) CCCCO :: 809.4
9) CCCCCCCO :: 820.8
10) CCCO :: 803.8

====

# test context: 328.15 K; 20000 kPa; Liquid; Vibrating tube method
Listing of entries alongside the reported mass density.
experimental endpoint: mass density (kg/m3)

1) CCCO [propan-1-ol] :: 792.6
2) CCCCCCCO [heptan-1-ol] :: 811.5
3) CCCCCCCCCCCO [1-undecanol] :: 820.4
4) CCCCCO [pentan-1-ol] :: 803.8
5) CCCCCCCCCO [nonan-1-ol] :: 816.3
6) CCCCCCCCO [octan-1-ol] :: 814.4
7) CCCCCCO [hexan-1-ol] :: 807.9
8) CCCCCCCCCCO [decan-1-ol] :: 818.3
9) CCCCO [butan-1-ol] :: 798.8
10) CCO [ethanol] :: 778.1

====

Listing of entries alongside the reported mass density.
# test context: 298.15 K; 1000 kPa; Liquid; Vibrating tube method
experimental endpoint: mass density (kg/m3)

1. CCCCO :: 806.6
2. CCCCCCCCCCO :: 826
3. CCCCCO :: 811.3
4. CCO :: 785.6
5. CCCCCCCCCCCO :: 828.2
6. CCCCCCCO :: 819.1
7. CCCO :: 800.5
8. CCCCCCCCO :: 822
9. CCCCCCO :: 815.6
10. CCCCCCCCCO :: 823.7

====

Listing of entries alongside the reported mass density.
# test context: 328.15 K; 50000 kPa; Liquid; Vibrating tube method
experimental endpoint: mass density (kg/m3)

1) CCCCCCCCCO :: 833.4
2) CCCCCO :: 822.9
3) CCO :: 801.3
4) CCCCO :: 818.9
5) CCCCCCO :: 826.4
6) CCCO :: 813.8
7) CCCCCCCCO :: 831.9
8) CCCCCCCCCCCO :: 837
9) CCCCCCCO :: 829.4
10) CCCCCCCCCCO :: 835.2

====

# test context: 338.15 K; 30000 kPa; Liquid; Vibrating tube method
experimental endpoint: mass density (kg/m3)

1. CCCCCCCCO :: 814.2
2. CCCCO :: 799
3. CCO :: 778.7
4. CCCCCCO :: 807.9
5. CCCO :: 792.9
6. CCCCCCCCCO :: 816.1
7. CCCCCCCO :: 811.4
8. CCCCCCCCCCO :: 818.1
9. CCCCCCCCCCCO :: 819.9
10. CCCCCO :: 803.8

====

Listing of entries alongside the reported mass density.
# test context: 328.15 K; 30000 kPa; Liquid; Vibrating tube method
experimental endpoint: mass density (kg/m3)

1) CCCCCO [pentan-1-ol] :: 810.6
2) CCCCCCCO [heptan-1-ol] :: 817.8
3) CCCCO [butan-1-ol] :: 806
4) CCCCCCCCO [octan-1-ol] :: 820.5
5) CCCCCCO [hexan-1-ol] :: 814.4
6) CCCCCCCCCO [nonan-1-ol] :: 822.3
7) CCO [ethanol] :: 786.5
8) CCCO [propan-1-ol] :: 800.2
9) CCCCCCCCCCCO [1-undecanol] :: 826.2
10) CCCCCCCCCCO [decan-1-ol] :: 824.3

====

# test context: 298.15 K; 40000 kPa; Liquid; Vibrating tube method
Listing of entries alongside the reported mass density.
experimental endpoint: mass density (kg/m3)

1) CCCCCCCCCCO [decan-1-ol] :: 847.6
2) CCCCCO [pentan-1-ol] :: 836
3) CCCCO [butan-1-ol] :: 832.6
4) CCO [ethanol] :: 815.9
5) CCCCCCCO [heptan-1-ol] :: 842.1
6) CCCCCCO [hexan-1-ol] :: 839.4
7) CCCCCCCCO [octan-1-ol] :: 844.4
8) CCCCCCCCCO [nonan-1-ol] :: 845.7
9) CCCCCCCCCCCO [1-undecanol] :: 849.4
10) CCCO [propan-1-ol] :: 827.9

====

# test context: 348.15 K; 30000 kPa; Liquid; Vibrating tube method
experimental endpoint: mass density (kg/m3)

1) CCCCCCCO [heptan-1-ol] :: 804.8
2) CCCO [propan-1-ol] :: 785.4
3) CCO [ethanol] :: 770.8
4) CCCCCCCCCO [nonan-1-ol] :: 809.8
5) CCCCCCCCCCCO [1-undecanol] :: 813.9
6) CCCCO [butan-1-ol] :: 791.8
7) CCCCCO [pentan-1-ol] :: 796.9
8) CCCCCCO [hexan-1-ol] :: 801.2
9) CCCCCCCCO [octan-1-ol] :: 807.8
10) CCCCCCCCCCO [decan-1-ol] :: 811.9

====

# test context: 358.15 K; 35000 kPa; Liquid; Vibrating tube method
experimental endpoint: mass density (kg/m3)

1. CCCCCCCCCO :: 806.6
2. CCCCCCO :: 797.9
3. CCCO :: 781.6
4. CCCCCCCCCCCO :: 810.8
5. CCCCCCCCO :: 804.5
6. CCCCCO :: 793.6
7. CCCCCCCCCCO :: 808.8
8. CCO :: 767.2
9. CCCCO :: 788.3
10. CCCCCCCO :: 801.5

====

Listing of entries alongside the reported mass density.
# test context: 328.15 K; 60000 kPa; Liquid; Vibrating tube method
experimental endpoint: mass density (kg/m3)

1. CCCCCO :: 828.4
2. CCCCCCO :: 831.6
3. CCCCO :: 824.6
4. CCCCCCCCO :: 836.9
5. CCCCCCCCCCO :: 840.2
6. CCCCCCCO :: 834.5
7. CCO :: 807.8
8. CCCCCCCCCCCO :: 841.8
9. CCCO :: 819.8
10. CCCCCCCCCO :: 838.3

====

Listing of entries alongside the reported mass density.
# test context: 348.15 K; 100 kPa; Liquid; Vibrating tube method
experimental endpoint: mass density (kg/m3)

1) CCCCCCCCCCCO :: 793.3
2) CCCCCCCCCCO :: 790.9
3) CCCCCCCCCO :: 788.3
4) CCCO :: 757.2
5) CCCCCCCO :: 782.1
6) CCCCCO :: 772.3
7) CCO :: 739.5
8) CCCCCCO :: 777.6
9) CCCCO :: 765.6
10) CCCCCCCCO :: 785.6

====

# test context: 298.15 K; 25000 kPa; Liquid; Vibrating tube method
Listing of entries alongside the reported mass density.
experimental endpoint: mass density (kg/m3)

1) CCCCO :: 823.5
2) CCCCCCCCCCO :: 839.8
3) CCCCCO :: 827.3
4) CCCCCCCCCCCO :: 841.8
5) CCCCCCCCO :: 836.4
6) CCCO :: 818.3
7) CCCCCCCO :: 833.9
8) CCCCCCO :: 830.9
9) CCCCCCCCCO :: 837.9
10) CCO :: 805.3

====

# test context: 308.15 K; 30000 kPa; Liquid; Vibrating tube method
experimental endpoint: mass density (kg/m3)

1. CCCCO :: 819.7
2. CCCCCCCO :: 830.5
3. CCCCCCO :: 827.5
4. CCCCCCCCCCCO :: 838.3
5. CCCCCCCCCO :: 834.5
6. CCO :: 801.5
7. CCCCCO :: 823.8
8. CCCO :: 814.5
9. CCCCCCCCO :: 833
10. CCCCCCCCCCO :: 836.4
